Reference source for all entries: PubChem BioAssay (Tox21)

molecular target: Nuclear receptor subfamily 1 group I member 2 (Homo sapiens) (UniProt O75469); assay: Human pregnane X receptor (PXR) small molecule agonists, qHTS assay (AID 1346982); details: PXR-Luc HepG2, CYP3A4 luciferase reporter, 24 h; series mostly up to 92.4 µM; also: nearly all actives have a fitted effect of over 35% in size; also: potency is read from the fitted curve at half-maximal effect
Sequence (O75469 whole entry, looked up): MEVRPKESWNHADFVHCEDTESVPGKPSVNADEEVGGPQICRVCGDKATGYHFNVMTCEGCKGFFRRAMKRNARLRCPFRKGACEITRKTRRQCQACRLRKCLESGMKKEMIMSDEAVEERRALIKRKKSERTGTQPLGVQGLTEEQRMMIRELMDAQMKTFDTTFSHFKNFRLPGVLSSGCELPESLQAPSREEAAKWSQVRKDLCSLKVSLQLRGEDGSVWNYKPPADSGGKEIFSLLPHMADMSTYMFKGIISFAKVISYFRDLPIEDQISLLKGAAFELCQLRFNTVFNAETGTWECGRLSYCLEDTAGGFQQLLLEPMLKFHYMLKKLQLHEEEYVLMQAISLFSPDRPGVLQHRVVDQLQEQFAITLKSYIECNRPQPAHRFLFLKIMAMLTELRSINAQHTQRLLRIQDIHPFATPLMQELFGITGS
Inconclusive results are not listed. Active and inactive are the calls of the source. Calls follow the shape of the dose curve; as a rule, active = well fitted activation curve with a large enough effect in the repeat runs; inconclusive = weak or mixed curves; inactive = no such curve, though single readings can be large or run the other way.
MEASURED_QUANTITY: Potency

# example entries with known answers
| MOL_SMILES | MEASURED_QUANTITY | VALUE_REPORTED |
| --- | --- | --- |
| [Cl][Hg][c]1ccccc1 | Potency | inactive |
| ClC1=C(Cl)[C@]2(Cl)[C@@H]3[C@H]4C[C@H]([C@@H]5O[C@H]45)[C@@H]3[C@@]1(Cl)C2(Cl)Cl | Potency | 5.44 µM (active) |
| [O]=[Cr][O][Cr]=[O] | Potency | inactive |
| COP(=O)(OC)O/C(=C\Cl)c1cc(Cl)c(Cl)cc1Cl | Potency | 54.5 µM (active) |
| Oc1ccc([C@H]2CNCc3c2ccc(O)c3O)cc1O | Potency | inactive |

q: Fill in the blank: the reported Potency of C=Cc1cccc(CCl)c1 is ____.
a: inactive

q: Item: O=[N+]([O-])c1ccc(Cl)c(Cl)c1Cl
a: inactive

q: Item: O=C(N[C@@H]1N=C(c2ccccc2F)c2cccc3c2N(CC3)C1=O)c1cc2ccccc2[nH]1
a: 10.6 µM (active)

q: Item: Nc1nc(N)c(N)c(N)n1
a: inactive

q: Item: Oc1ccc(Cl)c(Cl)c1
a: 60.2 µM (active)

q: Item: Oc1cc(Cl)cc(Cl)c1
a: 69.3 µM (active)

###

test: qHTS assay to identify small molecule agonists of H2AX (AID 1224845); conditions: CHO-K1 phospho-H2AX Ser139 HTRF, 3 h; series mostly up to 154 µM
Inconclusive results are not listed. Active and inactive are the calls of the source. The call rests on the fitted dose curve; in most records, active means well fitted activation curve with a large enough effect in the signal ratio in the repeat runs (not every such curve was filed as active); inconclusive means weak or mixed curves; inactive means flat fitted curve, though single readings scatter; the % refers to the signal ratio.
Valid outcomes are listed here; reply with one: active, inactive

Here's what some known entries look like.
| MOLECULE | LABEL_VALUE |
| --- | --- |
| CC(=O)[O][Sn]([c]1ccccc1)([c]1ccccc1)[c]1ccccc1 | active |
| S=C=Nc1ccccc1 | inactive |

q: Hello, I am checking results. What call was entered for CCCCCON=O ?
a: inactive

q: Item: O=S1(=O)OCC2C(CO1)C1(Cl)C(Cl)=C(Cl)C2(Cl)C1(Cl)Cl (stereo not given)
a: inactive

q: Item: O=C1C[C@@H]2OCC=C3CN4CC[C@]56c7ccccc7N1[C@H]5[C@H]2[C@H]3C[C@H]46
a: inactive

q: Item: COc1ccc2c3c1O[C@H]1[C@H](O)CC[C@H]4[C@@H](C2)N(C)CC[C@@]341
a: inactive

q: Item: CC1CCCC1
a: inactive

###

assay: qHTS assay to identify small molecule agonists of the endoplasmic reticulum stress response signaling pathway - cell viability counter screen (AID 1159517); conditions: ESRE-bla HeLa viability, CellTiter-Glo luminescence, 5 h; series mostly up to 61 µM; also: nearly all actives have a fitted effect of over 50% in size
Results filed as inconclusive are left out. The source made the active and inactive calls. Calls follow the shape of the full dose curve.
Valid outcomes are listed here; reply with one: active, inactive

q: Hello, I am checking results. What call was entered for CCN(CC)C(=S)S ?
a: inactive

q: Item: CC(C)N(C(=O)SC/C(Cl)=C/Cl)C(C)C
a: inactive

q: Item: O=C1C(Cl)=C(Cl)C(=O)C(Cl)=C1Cl
a: active

q: Item: CNC(C)(C)Cc1ccccc1
a: inactive

q: Item: CCN(CC)C(=O)N[C@@H]1C=C2c3cccc4[nH]cc(c34)C[C@@H]2N(C)C1
a: inactive

q: Item: CO/N=C(/C1=NOCCO1)c1ccccc1Oc1ncnc(Oc2ccccc2Cl)c1F
a: inactive

q: Item: CCC(C)c1cccc(C(C)CC)c1O (centres undefined)
a: inactive

q: Item: CC(O)C(=O)[O][Hg][c]1ccccc1 (centres undefined)
a: active

q: Item: CN(C)C(=S)SSC(=S)N(C)C
a: inactive

q: Item: CCNS(=O)(=O)C(F)(F)C(F)(F)C(F)(F)C(F)(F)C(F)(F)C(F)(F)C(F)(F)C(F)(F)F
a: inactive

q: Item: C=Cc1cccc(CCl)c1
a: inactive

q: Item: CCOC(=O)CCN(SN(C)C(=O)Oc1cccc2c1OC(C)(C)C2)C(C)C
a: inactive

q: Item: CC(=O)O.CC(=O)O.CC(=O)O.CC(=O)O.CC(=O)O.CC(=O)O.CC(=O)O.O.O.[Cr].[Cr].[Cr]
a: inactive

q: Item: CC(Cc1ccc(OCC(=O)O)cc1)NCC(O)c1csc(C(F)(F)F)n1 (centres undefined)
a: inactive

q: Item: Oc1ccc([C@H]2CNCc3c2ccc(O)c3O)cc1O
a: inactive

q: Item: [O-][Cl+3]([O-])([O-])O
a: inactive

q: Item: c1cc[n+]2c(c1)-c1cccc[n+]1CC2
a: inactive

q: Item: CCOP(=O)(OCC)Oc1nc(Cl)c(Cl)cc1Cl
a: inactive
